Cited source: PubChem BioAssay AID489027

- testedSystem: UPR counterscreen luciferase reporter, luminescence
- measurementNotes: luciferase reporter activation, UPR counterscreen line – cell-based, luminescence, counter-screen for adaptive UPR activator project, dose response (AID 489027)
Active and inactive are the calls of the source. How the calls were made is not given here.
One label from this list, please: label 1 for active, label 0 for inactive

INSERT INTO results (compound, group) VALUES
  ('Cc1ccc(NC(=O)c2c(C)nc3sc(C(=O)NC4CCCC4)c(N)c3c2-c2ccco2)c(C)c1', 'label 0'),
  ('Nc1c(C(=O)Nc2ccc(S(=O)(=O)N3CCCC3)cc2)sc2nc3ccc(OC(F)(F)F)cc3cc12', 'label 1'),
  ('Cc1ccc(NC(=O)c2ccc(N/N=C/c3cccc(O)c3)c([N+](=O)[O-])c2)cc1', 'label 1'),
  ('CC1CCc2c(sc(NC(=O)CCc3nc4ccccc4c(=O)[nH]3)c2C#N)C1 (stereo not given)', 'label 0'),
  ('Cc1cccc(NC(=O)CSc2nc(C)c(CC(=O)c3ccc(Br)cc3)c(C)c2C#N)c1C', 'label 0');

Q: Record request — test call for CCOc1ccccc1-n1c(SCC(=O)Nc2ccc(CC)cc2)nc2n[nH]c(C)c2c1=N
A: label 1

Q: Record request — test call for CCOc1cc(/C=C2/NC(=S)NC2=O)ccc1OCc1ccc([N+](=O)[O-])cc1
A: label 0

Q: Record request — test call for Cc1cc(C)nc(SCc2ccc(C(=O)N/N=C/c3cccc(O)c3O)cc2)n1
A: label 1
